# ASSAY_EXPLANATION: Phase I trial EudraCT3941 (Example 1): pharmacokinetics
# Type: in vivo, human
# SETUP_CONDITIONS: human, in vivo, iv, 12 mg/m2
QUANTITY: AUC (ng·h/mL)
# value in ng·h/mL; strip the unit string

Quick note, AUC for C#CCN(c1ccc(C(=O)N[C@@H](CCC(=O)N[C@H](CCC(=O)O)C(=O)O)C(=O)O)cc1)[C@H]1CCc2cc3nc(CO)[nH]c(=O)c3cc21 landed at 85200

----------
# ASSAY_EXPLANATION: Phase I trial EudraCT3941 (Example 1): pharmacokinetics
# Assay type: in vivo, human
# SETUP_CONDITIONS: human, in vivo, iv, 12 mg/m2
QUANTITY: half-life (h)
// units = h; emit number, no label

Recorded result, C#CCN(c1ccc(C(=O)N[C@@H](CCC(=O)N[C@H](CCC(=O)O)C(=O)O)C(=O)O)cc1)[C@H]1CCc2cc3nc(CO)[nH]c(=O)c3cc21 , half-life: 26

----------
# ASSAY_EXPLANATION: Phase I trial EudraCT3941 (Example 1): pharmacokinetics
# Format: in vivo, human
# SETUP_CONDITIONS: human, in vivo, iv, 12 mg/m2
QUANTITY: Cmax (ng/mL)
Enter your answer as a number in ng/mL; do not include the unit.

Per the record, C#CCN(c1ccc(C(=O)N[C@@H](CCC(=O)N[C@H](CCC(=O)O)C(=O)O)C(=O)O)cc1)[C@H]1CCc2cc3nc(CO)[nH]c(=O)c3cc21 has Cmax of 4950
